- Tested on: MS2 coat protein
- Method notes: apparent KD of MS2 coat protein; designed switch direction (-1 OFF switch, 1 ON switch): -1; higher = weaker reporter binding
- Particulars: Eterna round: R95; input ligand: microRNA oligo, concentration not stated
Observed property: apparent KD of MS2 coat protein (nM)
# output: bare number, implied unit nM

As a guide, the following entries are already answered.
| Entry sequence | Quantitative result |
| --- | --- |
| GAGGAACAUGAGGAUCACCCAUGUAAGGAUAUGCAAAGCGAGGUAGUAGAAGGAGAAGGCAGAAGGUACACGGA [JR_Exclu1_Sub075] (puzzle: Exclusion 1) | 29.6 |
| CCUCCACAUGAGGAUCACCCAUGUCAGGAUAUCGUGCGCGCGUUUUCGGUCUUUCGCGCGAGAAGGGACGACUG (puzzle: Exclusion 1) | 24.1 |
| UAAAAUAGUGUGAGGAUAUGCUGGUCCUUGGAUCAGCAGAAGGCACAUGAGGAUCACCCAUGUAGAUAAUAAUA [Mat - Exclusion 4 - JL Mod - D26] (puzzle: Brourd's mod of Exclusion 4) | 49.6 |
| UACUUACGAGGAUAUCGAUUGUGGUACAUGAGGAUCACCCAUGUAUGUGAUAUUGUAUUUCGAGAAGGCGUUCAGU [JR_E5_Sub061] (puzzle: Exclusion 5) | 22.7 |
| GAAAAGGUAGGAUAUACGAAAAGAAAGGGUAGAAGAAGAACACAUGAGGAUCACCCAUGUAGAAGGACCAAAAG [Mat - Exclusion 2 - Mod of my Tesla design - D1] (puzzle: Exclusion 2) | 18.5 |
| UUAGGCGUCAUUGCUCGUCUUUUAUGGAGAUGACUGUUAACAUGAGGAUCACCCAUGUGUGUGGGAGCUUUGCAGUU [JR_SV3TOV2_Sub023] (puzzle: Sensor v3, turn-off variant 2) | 568 |

The sequence GGUCAAGGACAGCUCCGCGCUGCCCUUGACCGCUCAUUUACAUGAGGAUCACCCAUGUUUUUUGCUUGUCUUGUUUC [Atedorgela] (puzzle: Sensor v3, turn-off variant 2) showed apparent KD of MS2 coat protein equal to 110
